Molecular target: T1, CEACAM5 (R&D Systems, 4128-CM-050) (human, UniProt P06731 35-685)
T1 construct: Immobilised on the ELISA plate; also called human CEACAM5
T1 sequence (looked up): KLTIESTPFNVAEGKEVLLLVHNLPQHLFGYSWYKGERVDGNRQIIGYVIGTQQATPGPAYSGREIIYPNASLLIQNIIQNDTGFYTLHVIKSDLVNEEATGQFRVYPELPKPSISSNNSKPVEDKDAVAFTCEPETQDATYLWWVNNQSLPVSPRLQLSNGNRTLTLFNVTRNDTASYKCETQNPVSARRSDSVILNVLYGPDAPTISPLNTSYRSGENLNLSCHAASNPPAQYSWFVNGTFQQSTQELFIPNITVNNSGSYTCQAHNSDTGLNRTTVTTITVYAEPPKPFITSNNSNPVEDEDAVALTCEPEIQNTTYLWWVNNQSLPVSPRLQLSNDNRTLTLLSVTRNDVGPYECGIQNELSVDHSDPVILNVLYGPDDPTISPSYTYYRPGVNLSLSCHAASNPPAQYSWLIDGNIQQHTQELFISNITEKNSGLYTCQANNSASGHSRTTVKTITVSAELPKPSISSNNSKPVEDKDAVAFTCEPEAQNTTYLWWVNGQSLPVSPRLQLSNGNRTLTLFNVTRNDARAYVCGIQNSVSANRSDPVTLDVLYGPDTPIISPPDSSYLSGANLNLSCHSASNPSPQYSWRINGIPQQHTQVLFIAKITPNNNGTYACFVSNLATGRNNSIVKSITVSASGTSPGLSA
Assay: ELISA on immobilised CEACAM5, 4-parameter fit, duplicate
observedProperty: EC50
Could you kindly put the unit after your number?

binder	EC50
[Gd/DOTA]p-Fab^2 (Fab, V domains shown, labeling may sit on this chain; sites not stated; [Gd/DOTA] (MW 542) on amino groups of the Fab, sites and chain not stated; 1-2 per Fab by MS, also called Ex-No 47; conjugate 47) VH: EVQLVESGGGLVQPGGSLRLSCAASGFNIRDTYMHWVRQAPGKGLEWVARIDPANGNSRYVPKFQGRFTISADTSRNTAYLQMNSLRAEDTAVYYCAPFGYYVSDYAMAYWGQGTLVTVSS VL: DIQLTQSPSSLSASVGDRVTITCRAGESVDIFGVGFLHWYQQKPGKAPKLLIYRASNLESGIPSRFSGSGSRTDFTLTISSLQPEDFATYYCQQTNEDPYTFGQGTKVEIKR	0.25 nM

Please find the next binder below.
Consider the binder shown here: (Y-S1-X)p-Fab^2 with Y Gd/DOTA, S1 - (bond), X -Met-Ile-Lys*-Z2(#N)- (Fab, V domains shown, labeling may sit on this chain; sites not stated; labeling portion (MW 1012) on amino groups of the Fab, sites and chain not stated; 1-2 per Fab by MS, also called Ex-No 10; conjugate 10) VH: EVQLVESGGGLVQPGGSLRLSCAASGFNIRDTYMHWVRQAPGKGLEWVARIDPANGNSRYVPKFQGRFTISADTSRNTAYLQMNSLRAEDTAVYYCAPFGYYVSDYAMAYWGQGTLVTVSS VL: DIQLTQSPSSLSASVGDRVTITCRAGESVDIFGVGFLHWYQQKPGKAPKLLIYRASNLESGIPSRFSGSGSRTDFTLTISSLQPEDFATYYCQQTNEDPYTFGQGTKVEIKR What is its recorded EC50?
0.11 nM
